protocol_summary: Comparison of PK in DIO mice and lean mice
Assay type: in vivo, mouse
test_parameters: mouse, plasma, po, Fasted Lean mice, oral administration
property_label: Tmax (h)
Answers are plain numbers, in h.

[ask] # get_value(readout='Tmax', item= Cc1cnccc1-c1cccc(C(C)(C)N(CCCC(=O)NCCS(=O)(=O)O)S(=O)(=O)c2ccccc2C(F)(F)F)c1 [Compound 20AA] )
[reply] 1

* * *

protocol_summary: Comparison of PK in DIO mice and lean mice
Format: in vivo, mouse
test_parameters: C57BL/6N, mouse, plasma, po, 10 mg/kg, Non-fasted Lean mice, 10 mg/kg oral
property_label: Cmax (nM)
Give bare numbers, in nM.

[ask] GET /values?readout=Cmax&item= Cc1cnccc1-c1cccc(C(C)(C)N(CCCC(=O)NCCS(=O)(=O)O)S(=O)(=O)c2ccccc2C(F)(F)F)c1 [Compound 20AA]
[reply] 3
